Property: normalized growth; scope: individual compounds
assay: chemical genetic growth profiling, strain panel (AID 1159580);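 further: tested at 20 µM; growth read once vehicle control cultures reached saturation at 30 °C; 1 = growth at the plate median or of vehicle wells; lower values mean less growth of the strain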; conditions: S. cerevisiae deletion strains, growth OD, locus YDL040C, strain nat1, hits give low values
Screen size: about 5,500 compounds; about 2,000 (36%) were called active. About 18% were inconclusive and are not listed. This is one part of the list.
Form rule: numeric answer, no unit written next to it.

Would you please look over these solved cases?
>>> readout_number("C/C(=C\\CO)CC[C@H](C)CCC[C@H](C)CCCC(C)C")
0.973
>>> readout_number("COc1cc2c(cc1OC)C(C)NCC2 (stereo unspecified)")
0.984
>>> readout_number("CNC(C)[C@@H]1CC[C@@H](N)[C@@H](OC2[C@@H](N)C[C@@H](N)[C@H](OC3OC[C@](C)(O)[C@H](NC)[C@H]3O)[C@H]2O)O1 (stereo partly specified)")
0.994
>>> readout_number("CC(=O)OCC1=C(C(=O)O)N2C(=O)[C@@H](NC(=O)CSc3ccncc3)[C@H]2SC1")
1.02
>>> readout_number("COC1=CC23CCCN2CCc2cc4c(cc2C3C1O)OCO4 (stereo unspecified)")
1.02
>>> readout_number("COc1cc(O)c2c(c1)C(=O)c1cc(C)cc(O)c1C2=O")
0.99
>>> readout_number("CC(C)CCCC(C)N (stereo unspecified)")
1.02
>>> readout_number("CCCc1ncc(C[n+]2ccccc2C)c(N)n1")
0.967

## Input For COc1ccccc1OCC(O)COC(N)=O (stereo unspecified) , what is its reported normalized growth?
## Output 0.992

## Input Request the reported normalized growth associated with CC(C)[C@@H]1CC[C@@H](C)CC1=O
## Output 1

## Input # query: normalized growth of entry CCCC(=O)Nc1ccc(OCC(O)CNC(C)C)c(C(C)=O)c1 (stereo unspecified)
## Output 1
